Test system: B6C3F1 mice, B16 melanoma ip, median survival T/C
assay-info: NCI In Vivo Anticancer Drug Screen. Data for tumor model B16 Melanoma (intraperitoneal) in B6C3F1 mice
run-conditions: endpoint: median survival time; dose: 400.0 mg/kg/injection; schedule: Q01DX009 (ip); vehicle: saline with Tween-80; higher = longer survival
Inconclusive results and toxic doses are left out.
Please provide measured T/C for the entries that follow.

[ask] Reported T/C for B6C3F1 mice, B16 melanoma ip, median survival T/C, given CCCOC(=O)c1ccc(O)cc1 ?
[reply] 100 % of control

[ask] Try NC(CS)C(=O)O (stereo unspecified) next.
[reply] 107 % of control

[ask] Try CN(C=O)C(C(=O)Nc1cccc2c(OC(=O)C(N(C)C=O)(N(C)C=O)N(C)C=O)c(N=Nc3ccc(S(=O)(=O)Nc4nccs4)cc3)cc(N=Nc3ccc(S(=O)(=O)Nc4nccs4)cc3)c12)(N(C)C=O)N(C)C=O (tested in a mixture with another compound) next.
[reply] 105 % of control

[ask] Try CCCC(C(CC)CNC(=O)Nc1cccc2ccccc12)N(C)C(=O)Nc1cccc2ccccc12 (stereo unspecified) next.
[reply] 95 % of control

[ask] Try O=Cc1ccc(O)c(O)c1 next.
[reply] 92 % of control

[ask] Try OC(c1ccccc1)C(O)C(c1ccccc1)N1CCCCC1 (stereo unspecified) next.
[reply] 111 % of control
